Where these numbers come from: PubChem BioAssay AID504842

Tested on: Chaperonin Mm-Cpn (Methanococcus maripaludis)
procedure_text: Inhibitors of TCP-1 ring complex (TRiC) of Methanococcus maripaludis (MmCpn): qHTS; further: nearly all actives have a fitted effect of over 80% in size
assay_context: purified Mm-Cpn ATPase, ADP Transcreener TR-FRET; series mostly up to 76.9 µM
Hit rate of the full screen: of about 330,000 compounds, about 100 (0.03%) were called active. Not shown: some 1% with an inconclusive outcome. The call rests on the fitted dose curve; in most records, active means well fitted inhibition curve with a large enough effect; inconclusive means small, poorly fitted or top-dose-only effect; inactive means flat fitted curve, though single readings scatter. The sample as a whole holds a higher share of actives than the screen did.
Possible outcomes: 1 (yes) for active, 0 (no) for inactive

# compound, study_system, label
data = [
    ("CN(C)CCCNc1c2c(c(C#N)c3nc4ccccc4n13)CCC2", "Chaperonin Mm-Cpn (Methanococcus maripaludis)", "0 (no)"),
    ("Cc1ccc(NC(=O)Nc2cccnc2)cc1", "Chaperonin Mm-Cpn (Methanococcus maripaludis)", "0 (no)"),
    ("CC(=O)Nc1cccc2c1[n+]([O-])c(C)c(C)[n+]2[O-]", "Chaperonin Mm-Cpn (Methanococcus maripaludis)", "0 (no)"),
    ("Cc1ccc(-c2nc(-c3cccnc3)sc2CC(=O)Nc2ccc(C)c(Cl)c2)cc1", "Chaperonin Mm-Cpn (Methanococcus maripaludis)", "1 (yes)"),
    ("CCCCOP(=O)(c1ccc(N(C)C)cc1)C(O)c1cc(OC)ccc1OC (stereo not given)", "Chaperonin Mm-Cpn (Methanococcus maripaludis)", "0 (no)"),
    ("Cc1nc(-c2ccc(F)cc2)c(CC(=O)Nc2cccc(S(=O)(=O)N3CCOCC3)c2)s1", "Chaperonin Mm-Cpn (Methanococcus maripaludis)", "0 (no)"),
    ("COCCn1c(SCC(=O)N2CCCCCC2)nc2c(c1=O)SCC2", "Chaperonin Mm-Cpn (Methanococcus maripaludis)", "0 (no)"),
    ("CC1(C)O[C@@H]2CC3C4C[C@H](F)C5=CC(=O)C=CC5(C)C4C(O)CC3(C)[C@]2(C(=O)CO)O1 (stereo not given in full)", "Chaperonin Mm-Cpn (Methanococcus maripaludis)", "0 (no)"),
    ("O=C(NCc1ccccc1CN1CCCC1)C1CCN(S(=O)(=O)c2ccc(Cl)cc2)CC1", "Chaperonin Mm-Cpn (Methanococcus maripaludis)", "0 (no)"),
    ("Cc1cccc(N2CCN(S(=O)(=O)c3ccc4[nH]c(=O)c(=O)[nH]c4c3)CC2C)c1 (stereo not given)", "Chaperonin Mm-Cpn (Methanococcus maripaludis)", "0 (no)"),
]

---

Tested on: Chaperonin Mm-Cpn (Methanococcus maripaludis)
procedure_text: Inhibitors of TCP-1 ring complex (TRiC) of Methanococcus maripaludis (MmCpn): qHTS; further: nearly all actives have a fitted effect of over 80% in size
assay_context: purified Mm-Cpn ATPase, ADP Transcreener TR-FRET; series mostly up to 76.9 µM
Among all 330,000 compounds or so, about 100 (0.03%) were called active. Inconclusive results (about 1%) are left out. Calls follow the shape of the dose curve; as a rule, active = well fitted inhibition curve with a large enough effect; inconclusive = small, poorly fitted or top-dose-only effect; inactive = flat fitted curve, though single readings scatter. Shown is part of a subset that was picked to be rich in actives.
Possible outcomes: yes (1) for active, no (0) for inactive

# molecule, label
rows = [
    ("O=C(CSc1nnc(-c2ccncc2)o1)Nc1cccc(Cl)c1", "no (0)"),
    ("CC(C)c1nc2oc3c(N4CCN(C)CC4)ncnc3c2c2c1CCC2", "no (0)"),
    ("COc1ccc2nc(NC3=NCN(CC4CCCO4)CN3)nc(C)c2c1 (configuration not stated)", "no (0)"),
    ("NC(=O)N1CCCC1C(=O)Nc1ccc(Cl)c(Cl)c1 (configuration not stated)", "no (0)"),
    ("Cn1c(=O)c([N+](=O)[O-])c(Oc2ccccc2)c2ccccc21", "no (0)"),
    ("FC(F)(F)c1ccc(CN2C[C@@H]3C(c4ccccc4)C4(c5ccccc5)CC3(C4)[C@H]2c2ccccc2)cc1 (some centres not stated)", "no (0)"),
    ("Cc1nn(-c2ccccc2)nc1C(=O)OCC(=O)N1CCCCC1C (configuration not stated)", "no (0)"),
    ("O=C(c1c(F)cccc1F)N1CCN(c2ncc(Br)cn2)CC1", "no (0)"),
    ("CCOc1ccc(NC(=O)CCCCCN2C(=O)[C@@H]3Cc4ccccc4CN3C2=O)cc1", "no (0)"),
    ("O=C(Nc1cccc(C(=O)NC2CC2)c1)c1ccc(F)c(S(=O)(=O)N2CCOCC2)c1", "no (0)"),
    ("CCOc1ccc(C(CCc2ccccc2)NC(=O)c2ccc(OC)c(OC)c2)cc1OCC (configuration not stated)", "no (0)"),
    ("CC(C#N)(NC(=O)CN1CCN(S(=O)(=O)c2cc(C(F)(F)F)ccc2Cl)CC1)C1CC1 (configuration not stated)", "no (0)"),
    ("COc1cccc(-n2c(N)cc(=O)nc2SCC(=O)Nc2cc(C)on2)c1", "no (0)"),
    ("CC(C)C(NC(=O)c1c(F)cccc1F)C(=O)NCc1ccncc1 (configuration not stated)", "no (0)"),
    ("CCn1c2ccccc2c2cc(NC(=O)Nc3ccc([N+](=O)[O-])cc3C)ccc21", "no (0)"),
    ("CCN(CC)S(=O)(=O)c1ccc(CNC(=O)CN2C(=O)NC3(CCc4ccccc43)C2=O)cc1 (configuration not stated)", "no (0)"),
    ("CCOC(=O)Cc1csc(NC(=O)COc2ccc3c(C)cc(=O)oc3c2)n1", "yes (1)"),
    ("Cc1cc(S(=O)(=O)NCC(C)C)ccc1OCC(=O)NC1CC1", "no (0)"),
    ("Cc1cc(Cl)ccc1NNC(=O)c1snnc1C", "no (0)"),
    ("CN(C(=O)CSc1nnc(C2CC2)n1C)C1CCCc2ccccc21 (configuration not stated)", "no (0)"),
    ("CC(=O)Nc1ccc(S(=O)(=O)N2CCN(S(=O)(=O)c3cccs3)CC2)cc1", "no (0)"),
    ("Cc1cc(=O)oc2cc(OCC(=O)Nc3nnc(C4CC4)s3)ccc12", "no (0)"),
]
